system: Mus musculus; test: Hypothermic activity in Swiss mouse assessed as decrease in rectal body temperature at 100 umol/kg, po after 1 hr at room temperature; assay type: organism-based; details: in vivo
Entries and their Activity values follow.
property: Activity

compound=CC(=O)Nc1ccc(S(=O)(=O)N2CCNCC2)cc1 property=Activity result="0.2 °C"
compound=CC(=O)Nc1ccc(S(=O)(=O)N2CCOCC2)cc1 property=Activity result="-1.4 °C"
compound=CC(=O)Nc1ccc(S(=O)(=O)N2CCN(C)CC2)cc1 property=Activity result="-1.8 °C"
compound=CC(=O)Nc1ccc(S(=O)(=O)N2CCSCC2)cc1 property=Activity result="-0.7 °C"
compound=CCN(CC)S(=O)(=O)c1ccc(NC(C)=O)cc1 property=Activity result="-1.8 °C"
compound=CCNS(=O)(=O)c1ccc(NC(C)=O)cc1 property=Activity result="0.2 °C"
compound="CC(=O)Nc1ccc(O)cc1 [ACETAMINOPHEN]" property=Activity result="-1.1 °C"
compound=CC(=O)Nc1ccc(S(=O)(=O)N2CCCCC2)cc1 property=Activity result="-0.8 °C"
